# Tested on: Pseudomonas aeruginosa
# EXPERIMENT_DESCRIPTION: Compound was tested for antimicrobial activity against Pseudomonas aeruginosa PAO1
# Assay type: functional
What Activity was measured for each of the following?
Answers are plain numbers.

Reference set, count: 4
>>> df
                                   compound  quantitative_result
0  CCn1cc(C(=O)O)c(=O)c2cc(F)c(N3CCNCC3)cc21 [NORFLOXACIN]                 0.78
1  CCn1cc(C(=O)O)c(=O)c2cc(F)c(N3CCN(CC(=O)c4ccccc4)CC3)cc21                 1.56
2  CCn1cc(C(=O)O)c(=O)c2cc(F)c(N3CCN(C(C)(C)C(C)=O)CC3)cc21                 6.25
3  CCn1cc(C(=O)O)c(=O)c2cc(F)c(N3CCN(CC(=O)C(C)(C)C)CC3)cc21                   50

q: Given the compound CCn1cc(C(=O)O)c(=O)c2cc(F)c(N3CCN(CCC(C)=O)CC3)cc21 , what is its reported Activity?
a: 0.78

---

# EXPERIMENT_DESCRIPTION: Lethal dose was measured in rat after oral administration
# Assay type: toxicity, organism-based
# DETAILS: in vivo
ENDPOINT_NAME: LD50

q: Given the molecule CCn1cc(C(=O)O)c(=O)c2cc(F)c(N3CCN(CC(C)=O)CC3)cc21 , what is its reported LD50?
a: > 4000 mg/kg

---

# Test system: Escherichia coli
# EXPERIMENT_DESCRIPTION: Compound was tested for antimicrobial activity in mice infected with Escherichia coli KC-14 after peroral administration
# Type: functional
# DETAILS: po
ENDPOINT_NAME: ED50 (mg/kg)
Answers are plain numbers, in mg/kg.

Reference set, count: 3
>>> df
                                   compound  endpoint_name  quantitative_result
0  CCn1cc(C(=O)O)c(=O)c2cc(F)c(N3CCN(CC(=O)C(C)(C)C)CC3)cc21           ED50                 7.13
1  CCn1cc(C(=O)O)c(=O)c2cc(F)c(N3CCN(C(C)(C)C(C)=O)CC3)cc21           ED50                 6.06
2  CCn1cc(C(=O)O)c(=O)c2cc(F)c(N3CCNCC3)cc21 [NORFLOXACIN]           ED50                 4.38

Give measured ED50 for every item shown.
1. CCn1cc(C(=O)O)c(=O)c2cc(F)c(N3CCN(CC(C)=O)CC3)cc21
2. CCn1cc(C(=O)O)c(=O)c2cc(F)c(N3CCN(CC(C)O)CC3)cc21 (stereo not drawn)
3. CCn1cc(C(=O)O)c(=O)c2cc(F)c(N3CCN(CCC(C)=O)CC3)cc21
4. CCn1cc(C(=O)O)c(=O)c2cc(F)c(N3CCN(C(C)C(C)=O)CC3)cc21 (stereo not drawn)

a:
1. 0.95
2. 3.9
3. 2.34
4. 3.53

---

What Activity was measured for each of the following?
# System: Pseudomonas aeruginosa
# EXPERIMENT_DESCRIPTION: Compound was tested for antimicrobial activity against Pseudomonas aeruginosa PAO1
# Assay type: functional
One number for each entry.

Reference set, count: 2
>>> print(df.to_string())
                                   compound  endpoint_name  quantitative_result
0  CCn1cc(C(=O)O)c(=O)c2cc(F)c(N3CCN(CC(C)O)CC3)cc21 (stereo not drawn)       Activity                 6.25
1  CCn1cc(C(=O)O)c(=O)c2cc(F)c(N3CCN(C(C)C(C)=O)CC3)cc21 (stereo not drawn)       Activity                 12.5

Continue with the next compound.
q: Given the compound CCn1cc(C(=O)O)c(=O)c2cc(F)c(N3CCN(CC(C)=O)CC3)cc21 , what is its reported Activity?
a: 6.25
